Values were extracted from PubChem BioAssay (NCI).

Listed compounds paired with reported growth
tested on: RPMI-8226 leukemia; assay: NCI-60 one-dose screen, 48 h (100 = growth as untreated, 0 = no growth, -100 = all killed); conditions: 10 µM
The panel holds about 83,000 compounds, 20% with a hit somewhere; the sample as a whole holds those more often.
The answer is to be given in %; state only the numeric part.

## Task Give measured growth for `COc1cccc(OC)c1OC(=O)c1ccccc1` (RPMI-8226 leukemia).
## Result 96.1

## Task Give RPMI-8226 leukemia growth for the following compound: `CCCCCCCCCCCCSC1=CC(=O)C=CC1=O`
## Result -8.18

## Task Name the recorded growth of `O=S(=O)(Nc1ccccc1Cl)c1ccc(-c2cnc(C3CC3)o2)cc1` , assay system RPMI-8226 leukemia.
## Result 27.9

## Task System RPMI-8226 leukemia. Read-out growth. Item `COc1cc(/C=C2\C(=O)Nc3ccccc32)cc(OC)c1O` . Report value.
## Result 46.6

## Task Retrieve growth on RPMI-8226 leukemia; query `COc1cc(CNCCN2C(=O)c3ccc4c5c(ccc(c35)C2=O)C(=O)N(CCNCc2cc(OC)c(OC)c(OC)c2)C4=O)cc(OC)c1OC`
## Result -25.5
